B1: TPR t1 (parent)
chain: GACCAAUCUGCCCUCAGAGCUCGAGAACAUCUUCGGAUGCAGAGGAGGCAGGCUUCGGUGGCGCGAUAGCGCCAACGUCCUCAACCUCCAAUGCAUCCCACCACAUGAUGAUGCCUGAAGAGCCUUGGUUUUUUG

- Variants of: B1
- test_description: polymerase ribozyme fitness, log enrichment relative to wild type (log ratio); higher = more active; in vitro selection for triplet polymerase activity
Quick rule for you: polymerase ribozyme fitness (log ratio) at -1 or higher means satisfied, lower means not satisfied.

I'd appreciate it if you could say whether G57A U78C U87C C104U G113A has polymerase ribozyme fitness (log ratio) at least equal to -1. not satisfied

Given A41U A43U C72G G77C G93A C124G U131A , state whether its polymerase ribozyme fitness (log ratio) is at least -1. satisfied

Decide: polymerase ribozyme fitness (log ratio) of G39A G110A >= -1? not satisfied

Would you say A46C G57U shows polymerase ribozyme fitness (log ratio) at minimum -1? satisfied

Threshold query (polymerase ribozyme fitness (log ratio) >= -1) on C70U A74U C86A not satisfied

Quick check, polymerase ribozyme fitness (log ratio) >= -1? U109A not satisfied

Decide: polymerase ribozyme fitness (log ratio) of C8G G52U C73A U92G >= -1? not satisfied

Quick check, polymerase ribozyme fitness (log ratio) >= -1? G44A A111G satisfied

Exam item: decide whether the reported polymerase ribozyme fitness (log ratio) for G63A G122A is at least -1. not satisfied

State whether the measured polymerase ribozyme fitness (log ratio) reaches -1, counting equality as reaching it, for C8G G10U G42A G45C not satisfied

Evaluate A50G G63A : polymerase ribozyme fitness (log ratio) at minimum -1? satisfied

Reported polymerase ribozyme fitness (log ratio) reaches at least -1 for G45A C102U G120C ? not satisfied

Does the variant C4U C13G C56G C72U C73A have recorded polymerase ribozyme fitness (log ratio) that is -1 or more? not satisfied

API: above_or_equal(metric=polymerase ribozyme fitness (log ratio), cutoff=-1) for item C11U C34G C53A G71A not satisfied

Given the entry G10U C40G , answer whether its polymerase ribozyme fitness (log ratio) meets or surpasses -1. satisfied

Reported polymerase ribozyme fitness (log ratio) reaches at least -1 for U33A C104U U112A ? not satisfied

Tell me whether polymerase ribozyme fitness (log ratio) is at least -1 here: A6C G35U A83U C98G A121U not satisfied

Determine whether measured polymerase ribozyme fitness (log ratio) meets or exceeds -1 for C13G C62A C124A satisfied

Is reported polymerase ribozyme fitness (log ratio) greater than or equal to -1 here: C12G U92C G120U satisfied

Reported polymerase ribozyme fitness (log ratio) reaches at least -1 for C15U G60C A91U U129A ? not satisfied

Can C12G U55C C88A C104G G113A C123G C124A be said to have polymerase ribozyme fitness (log ratio) at or above -1? not satisfied

hey, is polymerase ribozyme fitness (log ratio) for this one >= -1? C22G G48A not satisfied

The origin of these recorded values is the RNAGym collection of RNA variant scans (doi:10.1073/pnas.2313332121).
